Reported HisTag MFI Ratio of EGFR+/EGFR- is given for each of the following binders.
test target: T1, nfP2X7 CAR 1
T1 construct: Expressed on T cells with truncated EGFR as marker gene; also called anti-nfP2X7 receptor CAR 1; nfP2X7 targeted CAR on EGFR+ T cells
experiment description: flow cytometry, CAR T cells, anti-His-FITC, EGFR+ over EGFR- cells
Kindly provide the number alone.

Here's what some known entries look like.
CD33 BRIDGE variant B26 (Fab, V domains shown, Lintuzumab-based Fab bridging molecule) VH: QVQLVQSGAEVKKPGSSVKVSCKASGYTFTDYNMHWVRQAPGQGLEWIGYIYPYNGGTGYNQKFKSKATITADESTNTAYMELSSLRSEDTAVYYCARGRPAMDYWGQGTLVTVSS VL: DIQMTQSPSSLSASVGDRVTITCRASESVDNYGISFMNWFQQKPGKAPKLLIYAASNQGSGVPSRFSGSGSGTDFTLTISSLQPDDFATYYCQQSKEVPWTFGQGTKVEIKR: 2.8
CD33 BRIDGE variant B20 (Fab, V domains shown, Lintuzumab-based Fab bridging molecule) VH: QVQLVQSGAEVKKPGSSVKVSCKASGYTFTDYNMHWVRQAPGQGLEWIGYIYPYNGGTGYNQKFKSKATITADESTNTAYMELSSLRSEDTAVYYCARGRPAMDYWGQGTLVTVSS VL: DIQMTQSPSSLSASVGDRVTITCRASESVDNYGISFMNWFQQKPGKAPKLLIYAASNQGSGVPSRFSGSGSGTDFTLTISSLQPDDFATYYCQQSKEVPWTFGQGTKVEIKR: 2.9
CD33 BRIDGE variant B13 (Fab, V domains shown, Lintuzumab-based Fab bridging molecule) VH: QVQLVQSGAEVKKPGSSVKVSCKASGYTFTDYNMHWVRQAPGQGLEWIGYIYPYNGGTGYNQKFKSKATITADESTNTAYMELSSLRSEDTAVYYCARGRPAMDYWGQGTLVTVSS VL: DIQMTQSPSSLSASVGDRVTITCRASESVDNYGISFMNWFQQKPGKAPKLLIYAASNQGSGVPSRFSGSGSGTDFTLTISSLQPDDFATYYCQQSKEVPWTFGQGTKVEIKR: 2.9

[in] Which measured HisTag MFI Ratio of EGFR+/EGFR- value corresponds to CD33 BRIDGE variant B8 (Fab, V domains shown, Lintuzumab-based Fab bridging molecule) VH: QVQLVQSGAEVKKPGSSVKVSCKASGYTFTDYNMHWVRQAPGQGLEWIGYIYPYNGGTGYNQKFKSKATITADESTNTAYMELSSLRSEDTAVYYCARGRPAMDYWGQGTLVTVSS VL: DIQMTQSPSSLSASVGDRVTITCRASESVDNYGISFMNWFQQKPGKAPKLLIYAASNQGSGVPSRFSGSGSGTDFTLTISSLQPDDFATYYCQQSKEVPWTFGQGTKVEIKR ?
[out] 2.9

[in] What HisTag MFI Ratio of EGFR+/EGFR- value was documented for this binder, CD33 BRIDGE variant B25 (Fab, V domains shown, Lintuzumab-based Fab bridging molecule) VH: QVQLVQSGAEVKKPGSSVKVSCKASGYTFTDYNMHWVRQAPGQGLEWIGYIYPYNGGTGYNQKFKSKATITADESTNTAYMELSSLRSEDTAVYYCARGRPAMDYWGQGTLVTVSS VL: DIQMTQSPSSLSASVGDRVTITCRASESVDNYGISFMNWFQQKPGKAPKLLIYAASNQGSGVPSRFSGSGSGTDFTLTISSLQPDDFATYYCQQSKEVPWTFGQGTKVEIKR ?
[out] 3.4
